# Tested on: SF-539 CNS
# test_summary: NCI tumour cell line growth inhibition, 48 h
attribute_measured: TGI

Below are worked cases with known answers.
>  <molecule>
COC(=O)c1cccc(COc2ccc([N+](=O)[O-])cc2Cl)c1

>  <TGI>
> 100 µM

$$$$
>  <molecule>
O=C(/C=C/c1ccco1)c1cccc(Nc2nc(Nc3ccccc3)nc(Nc3ccccc3)n2)c1

>  <TGI>
> 100 µM

$$$$
>  <molecule>
O=C1CSC2(CC(/C=C/c3ccccc3[N+](=O)[O-])=NN2c2cccc(S(=O)(=O)O)c2)N1c1nc2ccccc2s1 (stereo not given)

>  <TGI>
> 75 µM

$$$$
>  <molecule>
O=[N+]([O-])c1ccc(N/N=C\c2ccc(O)cc2O)nc1

>  <TGI>
> 100 µM

$$$$

Consider the record given below.
Q: Tell me the measured TGI of CCCCCCCCCCCCCCCc1nc(SCC(=O)O)n[nH]1 , please.
Ans: > 100 µM
